Where do these numbers come from? They come from PubChem BioAssay (NCATS).

Test system: HaCat
Assay: Cytotoxic Profiling of Annotated Libraries Using Quantitative High-Throughput Screening (AID 1296008); further: nearly all actives have a fitted effect of over 60% in size
Settings: Five cell lines viability, CellTiter-Glo ATP luminescence, 48-72 h; active compounds read low
Results filed as inconclusive are left out.
Could you please mark criterion met for values of max response below -20% and criterion not met for values at or above it?

Solved cases below.
item smiles	classification
CC[C@]1(O)C[C@H]2CN(CCC3=c4ccccc4=N[C]3[C@@](C(=O)OC)(c3cc4c(cc3OC)N(C)[C@H]3[C@@](O)(C(N)=O)[C@H](O)[C@]5(CC)C=CCN6CC[C@]43[C@@H]65)C2)C1	criterion not met
O=C1NC(=O)C(c2cnc3ccccn23)=C1c1cn2c3c(cccc13)CN(C(=O)N1CCOCC1)CC2	criterion met
C[C@@H](O[C@H]1OCCN(Cc2n[nH]c(=O)[nH]2)[C@@H]1c1ccc(F)cc1)c1cc(C(F)(F)F)cc(C(F)(F)F)c1	criterion met
CN[C@@H](C)[C@H]1[C@H](O)C[C@@]2(C)[C@@H]3CC[C@H]4C(C)(C)[C@@H](NC)CC[C@@]45C[C@@]35CC[C@]12C	criterion not met

// query Quick check: does CC(C)[C@H](O)C(=O)N[C@@H](C)C(=O)N[C@@H]1C(=O)N(C)CCc2ccccc21 have max response under -20%?
// result criterion not met

// query Quick check: does CCCCOCCOc1nc(-c2ccc(C(=O)O)c(F)c2)sc1C have max response under -20%?
// result criterion met

// query Quick check: does CNC(=O)c1cc(COc2nnc(Nc3ccc(Cl)cc3)c3ccoc23)ccn1 have max response under -20%?
// result criterion not met

---

Assay: Quantitative High-Throughput drug screen in 47 multiple myeloma cell lines against the NCATS MIPE library collection: RPMI8226_ATCC cell viability assay (AID 1919871); further: nearly all actives have a fitted effect of over 30% in size; further: potency means the concentration at half of the fitted maximal effect
Conditions: RPMI8226 myeloma viability, CellTiter-Glo ATP luminescence, 48 h; series mostly up to 45.8 µM
Records with an inconclusive call do not appear. Active and inactive are the calls of the source. Calls follow the shape of the dose curve; as a rule, active = well fitted cell-killing curve with a large enough effect; inconclusive = small, poorly fitted or top-dose-only effect, or effect the other way; inactive = no such curve, though single readings can be large or run the other way.
parameter: Potency

The following molecules have reported results that may help.
> print(dat)
                                   molecule            result
1  CCCCCOC(=O)Nc1nc(=O)n([C@@H]2O[C@H](C)[C@@H](O)C2O)cc1F (some centres not stated)          inactive
2  CC(C)CN(C[C@H](O)[C@H](Cc1ccccc1)NC(=O)O[C@H]1CCOC1)S(=O)(=O)c1ccc(N)cc1          inactive
3  CN(C)CCOc1ccc(-c2nc(-c3ccc4c(c3)CCC4=NO)c(-c3ccncc3)[nH]2)cc1  20.9 µM (active)
4    NS(=O)(=O)c1cc(Cl)c(Cl)c(S(N)(=O)=O)c1          inactive
5  C[C@@H]1[C@H](C)CC[C@]2(C(=O)O)CC[C@]3(C)C(=CC[C@@H]4[C@@]5(C)CC[C@H](O)C(C)(C)[C@H]5CC[C@]43C)[C@@H]12    27 µM (active)
6  O=C(c1ccc(C(=O)N2CCC(N3CCCC3)CC2)c(Nc2ccccc2)c1)N1CCC(N2CCCC2)CC1          inactive

The reported Potency of the molecule NS(=O)(=O)c1ccc(Nc2nc(OCC3CCCCC3)c3[nH]cnc3n2)cc1 was inactive

---

Assay: qHTS of pediatric cancer cell lines to identify multiple opportunities for drug repurposing: Primary screen for MG 63 (6-TG R) cells (AID 1347105); further: nearly all actives have a fitted effect of over 50% in size
Conditions: MG 63 (6-TG R) viability, CellTiter-Glo, 48 h; series mostly up to 46 µM
Inconclusive results are not listed. Activity calls are given as the source filed them. Calls come from the whole dose curve; as a rule, active = well fitted cell-killing curve with a large enough effect; inconclusive = small, poorly fitted or top-dose-only effect; inactive = no such curve, though single readings can be large or run the other way.
Return exactly one item of active, inactive

Solved cases below.
> print(dat)
                                item.smiles  classification
1  CC(C)n1c(C=C[C@H](O)C[C@H](O)CC(=O)O)c(-c2ccc(F)cc2)c2ccccc21          active
2  C=CCc1cccc(C=NNC(=O)CN2CCN(Cc3ccccc3)CC2)c1O          active
3  OC[C@H]1O[C@@H](Oc2ccc(O)cc2)[C@H](O)[C@@H](O)[C@H]1O        inactive

// query // param item: Cc1ccc(NC(=O)Nc2cc(C(F)(F)F)ccc2F)cc1Nc1ccc2c(c1)NC(=O)C2=Cc1ccc[nH]1 ; yields the recorded call
// result active

// query // param item: Cc1cccc(Nc2nc(N[C@@H]3CCCC[C@H]3N)ncc2C(N)=O)c1 ; yields the recorded call
// result active

// query // param item: CN(C)CCN(C)C(=O)c1ccc(NC(=O)Nc2ccc(-c3nc(N4CCOCC4)c4ccn(CC(F)(F)F)c4n3)cc2)cc1 ; yields the recorded call
// result active

// query // param item: C[C@]12CCC3=C4CCC(=O)C=C4CC[C@@H]3[C@H]1CC[C@@]2(O)CC#N ; yields the recorded call
// result inactive

// query // param item: Cc1cc2c(cc1C1(c3ccc(C(=O)O)cn3)CC1)C(C)(C)CCC2(C)C ; yields the recorded call
// result inactive

// query // param item: COc1cc2c(cc1OC)[C@@H]1Cc3ccc(OC)c(OC)c3CN1CC2 ; yields the recorded call
// result inactive
